Experiment: NCI Yeast Anticancer Drug Screen. Data for the rad50 strain (AID 155);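 also: 0% = growth of vehicle-only cultures of the same strain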
Conditions: S. cerevisiae rad50 strain growth inhibition; at 50.0 µM
About 79,000 compounds went through this panel and 15% of them were active in at least one assay; those are over-represented in the sample as a whole. Calls of active or inactive are those of the source. Rule as the data show it: active = growth inhibition above about 70%; inactive = the rest.
Classes used: yes (1) (active), no (0) (inactive)

INSERT INTO measurements (molecule, qualitative_label) VALUES
  ('CSc1nc2c(c(=O)n(C)c(=O)n2C)n1C', 'no (0)'),
  ('Cc1[nH]c2ccccc2c(=O)c1-c1ccccc1', 'no (0)'),
  ('C[C@]12CC[C@@H]3c4ccc(OS(C)(=O)=O)cc4CC[C@H]3[C@@H]1CC[C@@H]2OS(C)(=O)=O', 'no (0)'),
  ('CCCCN(CCCC)CC(O)c1cc(-c2ccc(Cl)cc2)nc2cc(OC)c(OC)cc12 (configuration not stated)', 'yes (1)'),
  ('COC(=O)NC(CI)c1ccccc1 (configuration not stated)', 'no (0)'),
  ('CNc1nc(SC)nc2[nH]ncc12', 'no (0)'),
  ('CN(C)c1nc(=O)c2ccccc2o1', 'no (0)'),
  ('O=C(c1cccc(C(=O)N(c2ccccc2)c2ccccc2)n1)N(c1ccccc1)c1ccccc1', 'no (0)'),
  ('C/C=C/[C@@]1(OC(=O)c2ccccc2)C[C@@H]2CCCC[C@@H]21', 'no (0)'),
  ('O=Cc1cccc2ccc3cccc(C(=O)O)c3c12', 'no (0)'),
  ('COc1ccc(N/N=C(/c2ccccc2)c2noc(-c3ccccc3)n2)cc1', 'yes (1)'),
  ('COc1ccc(/C(N=Nc2ccccc2)=N/N=C(N)N)cc1', 'no (0)');

====

Assay: NCI Yeast Anticancer Drug Screen. Data for the sgs1 mgt1 strain (AID 161);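 also: 0% = growth of cultures given vehicle only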
Conditions: S. cerevisiae sgs1 mgt1 strain, at 50.0 µM, active compounds read high
About 79,000 compounds went through this panel and 15% of them were active in at least one assay; those are over-represented in the sample as a whole.
Param threshold (20%) applies to growth inhibition; output met when value >= threshold, not met when value < threshold.

INSERT INTO assay_data (line_notation, qualitative_label) VALUES
  ('Cc1sc2c(c1C)C(=O)c1cccn1-2', 'not met'),
  ('Oc1ccc(-c2nnc(-c3ccc(O)cc3)nn2)cc1', 'met'),
  ('COC(=O)n1sc(SC)nc1=N', 'not met'),
  ('N#C/C(=C\c1ccccc1)c1ccc(F)cc1F', 'not met'),
  ('COc1ccccc1N=Nc1c(-c2ccccc2)nn(C(N)=S)c1-c1ccccc1', 'not met'),
  ('COC(=O)N1N=C(c2ccccc2)C(C(=O)OC)(C(=O)OC)c2ccccc21', 'met');

====

Experiment: NCI Yeast Anticancer Drug Screen. Data for the bub3 strain (AID 167)
Details: S. cerevisiae bub3 mutant strain, at 50.0 µM, active compounds read high
Compounds without any hit were thinned out: in the full panel of roughly 79,000, 15% have a hit.
property name: growth inhibition (%)

INSERT INTO assay_data (compound, reading) VALUES
  ('CC(=O)Oc1ccc(CCNC(c2ccccc2)c2ccccc2)cc1OC(C)=O', -17.4),
  ('CCOC(=O)C1=C(C)N(NC(N)=O)C2(O)CCCC(=O)C12C (stereo unspecified)', -3.8),
  ('O=C(NN=C1CCCCC1)c1ccccc1', -17.4),
  ('CC(C)(Nc1nc2c(ncn2C2OC(CO)C(O)C2O)c(=O)[nH]1)P(=O)(O)O (stereo unspecified)', -5.4),
  ('COc1ccc(C(=O)NC(=S)Nc2cccc([N+](=O)[O-])c2)cc1', 24.6),
  ('COc1cccc(/C=C2/C(=O)N(c3ccc([N+](=O)[O-])cc3)N=C2C)c1', 14.3),
  ('O=c1[nH]c(=O)n(C2CC(O)C(CO)O2)cc1NN=NCCCc1ccccc1 (stereo unspecified)', -11.3),
  ('Cc1ccc(C(=O)Nc2ccc(CP(=O)(O)O)cc2)cc1NC(=O)c1cccc(N)c1', -9),
  ('CC(C)(C)c1ccc(C(=O)NCSCC(NC(=O)CCC(N)C(=O)O)C(=O)NCC(=O)O)cc1 (stereo unspecified)', 0.85),
  ('CCOC(=O)N/N=C(\C)c1ccc(OC)cc1', 34.9),
  ('N#CC(c1ccccc1)[N+](=O)[O-] (stereo unspecified)', -2.95),
  ('CC1C(O)C(c2ccccc2)(c2ccccc2)C(C)CN1C (stereo unspecified)', -2.6),
  ('O=C(Nc1ccc(Cl)cc1)Nc1nnc2nc(C(C(=O)c3ccc(O)cc3O)c3nc4nnc(NC(=O)Nc5ccc(Cl)cc5)n4[nH]c3=O)c(=O)[nH]n12', 14.7),
  ('COC(=O)c1nc(N)nc(C(=O)OC)c1C(=O)c1cccc([N+](=O)[O-])c1', -21.7),
  ('Nn1c(-c2ccccc2)n[nH]c1=O', 3.25),
  ('O=c1[nH]c(=S)c2[nH]c(=O)n(-c3ccccc3)c2[nH]1', -9.9),
  ('O=[N+]([O-])c1ccc(-n2nnc3ccccc32)nc1', 7.5),
  ('Cc1ccc(S(=O)(=O)CC(=O)CC(=O)C(=O)Nc2ccc(C)cc2C)cc1', -8.55),
  ('C(CCN1CCOCC1)CN1CCOCC1', -10.7),
  ('O=C1NN=CN2C(=O)CCC12 (stereo unspecified)', 14.4),
  ('O=C(Nc1ccccc1)c1cc2cc(N=Nc3ccc(Br)cc3)ccc2oc1=O', -17.1),
  ('O=c1[nH]c2cc3[nH]c4ncccc4c(=O)c3cc2[nH]1', -1.15),
  ('CC(=O)OCC(OC(C)=O)C1(O)CCC2C3CCC4=CC(=O)CCC4(C)C3CCC21C (stereo unspecified)', 98.3),
  ('CC1CCCCC1NC(=O)c1ccccc1 (stereo unspecified)', -13.7),
  ('COC1(OC)C(c2ccc([N+](=O)[O-])cc2)C([N+](=O)[O-])C1(OC)OC (stereo unspecified)', -8.4),
  ('CCCCCCCCCCCOc1ccc(Cl)cc1Cl', 30.2),
  ('Oc1cc(O)c(Cl)cc1Cl', -12.3),
  ('O=C(O)C1CC2C3CCC2C1C3=O (stereo unspecified)', -2.8),
  ('COc1ccc(C2C(C(=O)NCc3ccccc3)=C(C)NC(C)=C2C(=O)NCc2ccccc2)cc1OC', 3.35),
  ('CCCCCOC(=O)OC(C)CNC(=O)C(C)OC(=O)OCCCCC (stereo unspecified)', -9.5),
  ('c1csc(NC(Nc2nccs2)C23CC4CC(CC(C4)C2)C3)n1', 1.1),
  ('COc1ccc(C(=O)CC(Sc2ccccc2N)c2ccc(OC)cc2)cc1 (stereo unspecified)', 6.3),
  ('O=[N+]([O-])c1cccc(NC(c2ccccc2)S(=O)(=O)O)c1 (stereo unspecified)', 8.75),
  ('NC=O', -0.15),
  ('O=C1CC2C(=O)N(Cc3ccccc3)C1C=C2S(=O)(=O)c1ccccc1 (stereo unspecified)', -1.3),
  ('O=C(c1ccc(Cl)cc1)C(Br)C(C[N+](=O)[O-])c1ccccc1 (stereo unspecified)', 99.1),
  ('Clc1ccc(/C=N/c2ccccn2)cc1', -54.1),
  ('CCSc1nc2ccc(CN3C(=O)c4ccccc4C3=O)cc2s1', 15.8),
  ('BrCCC1(CCBr)CCCCC1', 48.6),
  ('CCc1cccc(CC)c1N=C(NC(=O)c1ccc(Br)cc1)SC', -17.1),
  ('CC(=O)OCC(=O)c1cc(C)n(C)c(=O)c1CN1C(=O)c2ccccc2C1=O', 10.6),
  ('CC(O)CNc1ncnc2ccccc12 (stereo unspecified)', 9.15),
  ('CC(=O)OCC1OC(N2C(S)=C(C#N)C(c3ccco3)C(C(C)=O)=C2c2ccccc2)C(OC(C)=O)C(OC(C)=O)C1OC(C)=O (stereo unspecified)', -19.4),
  ('CCCCc1c2c(nc3c1CCc1cc4cc5c(nc4nc1-3)-c1nc3c(c(CCCC)c1CC5)CCCC3)CCCC2', 9.95),
  ('CC(C)(C#N)CCCCC(C)(C)C#N', 12.4),
  ('COc1cc2c(c(OC)c1OC)-c1ccc(SC)c(=O)cc1[C@@H](NC(=O)CO)CC2', 21.1);
